Where do these numbers come from? They come from the nanobody polyreactivity screen of Harvey et al. (2022).

test_summary: yeast display, Sf9 membrane polyspecificity reagent, FACS + sequencing; frameworks hold sequencing errors
observed_property: polyreactivity (PSR sort gate)

Sample answers from the record:
{"columns": ["residue_codes", "polyreactivity (PSR sort gate)"],
 "data": [
  ["QVQLVESGGGLVQAGGSLRLSCAASGRTFWGYAMGWYRQAPGKERELVATISSTGSTNYADSVKGRFTISRDNAKNPVYLQMNSLKPEDTAVYYCNAKRHLYRGWYQRYDYWGQGTQVTVSS", "high polyreactivity"],
  ["QVQLVESGGGLVQAGGSLRLSCAASGSTLIDYTMGWYRQAPGKERELVAAISSGGSTNYADSVKGRFTISRDNAKNTVYLQMNSLKPEDTAVYYCAKDHQRYFYGFWEHPRYDYWGQGTQVTVSS", "high polyreactivity"],
  ["QVQLVESGGGLVQAGGSLRLSCAASGFIFHPNTMGWYRPAPGKERELVAGISYSGGITYTDSVKGRFTISRDNAKNTVYLQMNSLQPEDTAVYYFNARTKVAYYRHYYWGQGTQVTVSS", "low polyreactivity"],
  ["QVQLVESGRGLVQAGGSLRLSCAASGITLYTNAMGWYRQAPGKEREFVAGISWNGGRTYYADSVKGRFTISRDNAKNTVYLQMNSLKPEDTAVYYCNARFVYRYKYYYWGQGTQVTVSS", "high polyreactivity"],
  ["QVQLVESGGGIVQAGGSLRLSCAASGFIISPNAMGWYRHAPGKEREFVAAIRYSGTSTSYADSVKGRFTISRDNGKNTVYLQMNSLKPEDTAVYYCAAQYRQRTGMYYWGQGSQVTVSS", "high polyreactivity"]
]}

Challenge: So what's the measured polyreactivity (PSR sort gate) for this one? QVQLVESGGGLVQAGGSLRLSCAASGRTFGYNAMGWYRQAPGKERELVAVITSSGGRTYADSVKGRFTISRDNAKNTVYLQMNSLKPEDTAVYYCATRTRLAQYSRGRYRYDYWGQGTQVTVSS
Response given: high polyreactivity

Challenge: What does the record list as polyreactivity (PSR sort gate) for QVQLVESGGGLVQAGGSLRLICAASGTFTSNAMGWYRQAPGKERELVAVITSTDSTNYADSVKGRFTISRDNAKNTVYLPLNSLKPEDTAVYYCAGSKYTVVQQYWDVLFDYWGQGTQVTVSS ?
Response given: low polyreactivity

Challenge: Any idea what polyreactivity (PSR sort gate) was measured for QVQLVESGGGLVQAGGSLRLSCAASGSTFSRYAMGWYRQAPGKERELVAAISRRAGSTYYADSVKGRFTISRDNAKNTVYLQMNSLKPEDTAVYYCAARTWTENRDGDYWGQGTQVTVSS ?
Response given: high polyreactivity

Challenge: Query: polyreactivity (PSR sort gate); subject: QVQLVESGGGLVQAGGSLRLSWAASGSTFEYNVMGWYRQAPGKERELVAAITQGDGGSTYYADSVKGRFTISRDNAKKTVYLQKNSLIPEDTAVYYCNAGYFTEYNSWGQGTEVTVSS
Response given: high polyreactivity

Challenge: Which value of polyreactivity (PSR sort gate) has been reported for QVQLVESGGGLVQAGGSLRLSCAASGNTFRFYTMGWYRQAPGKERELVAAINSSGRTNYADSVKGRFTISRDNAKNTVYLQMNSLIPEDTAVYYCAADQQRSIDAPYGYWGQGTQVTVSS in the records?
Response given: low polyreactivity

Challenge: # get_value(readout='polyreactivity (PSR sort gate)', item= QVQLVESGGGLVQAGGSLRLSCAASGSIFRRNAMGWYRQAPGKEREFVAAITWIGGSTYYADSVKGRFTISRDNAKNTVYLQMNSLKPEDTAVYYCAAKYRTYPSNYYYWGQGTQVTVSS )
Response given: high polyreactivity

Challenge: Tell me the measured polyreactivity (PSR sort gate) of QVQLVESGGGLVQAGGSLRLSCAASGRTFGTYAMGWYRQAPGKERELVAAINFSGGNTYYADSVKGLFTITRDNAKNTVYLQMNSLKPEDTAVYYCAKRGHSYSLDLYYIVTYDYWGQGTQVTVSS , please.
Response given: low polyreactivity

Challenge: Requested read-out: polyreactivity (PSR sort gate). Entry: QVQLVESGGGLVQAGGSLRLSCAASGSIFASYDMGWYRQAPGKERELVAAISYRGGGTYYADSVKGRVTISRDNAKNTVYLQMNSLKPEDTAVYYCNADTYSNTYRAYDYWGQGTQVTVSS
Response given: low polyreactivity

Challenge: What polyreactivity (PSR sort gate) value was documented for this sequence, QVQLVESGGGLVQAGGSLRLSCAASGYIFYWYDMGWYRQAPGKEREMVAVIPTSGGSTYYADSVKGRFTISRDNAKNTVYLQMNSLKPEDTAVEYCNADSLFEYWDYDYWGQGTQVTVSS ?
Response given: low polyreactivity

Challenge: Sample QFQLVDSGGGLVQAGGSLRLSCAASGLIFFYYAMGWYRQAPGKERELVAAIRTNYADSVKGRFTISRDNAKNTVYLQMNSLKPEDTAVYYCAAESSQTPTSAFDYWGQGTQVTVSS — what was its polyreactivity (PSR sort gate)?
Response given: low polyreactivity

Challenge: Returns the measured polyreactivity (PSR sort gate) for the input sequence. Input: QVQLVESGGGLVQAGGSLRLSCAASGFIFNYYVMGGYRQAPGKERELVATISWRGGRTYYADSVKGRFTISRDNAKNTVYLQMNSLKPEDTAVYYCAADSFYYRPEYDYWGQGTQVTVSS
Response given: low polyreactivity

Challenge: Recorded polyreactivity (PSR sort gate) of QVQLVESGGGLVQAGGSLRLSCAASGYTFAGNAMGWYRQATGKERELVAAISRSGGRTYYADSVKGRFTISRDNAKNTVYLQMNSLKPEDTAVYYCAAYFPRTLFEFGYWGQGTQVTVSS , please.
Response given: high polyreactivity

Challenge: Report polyreactivity (PSR sort gate) for QVQLVESGGGLVQAGGSLRLSCAASGSIFFPYAMGWSRQAPGKERELVAAITYGGGSTYYADSVKGRFTISRDNAKNTVYLQMNSLIPEDTAVYYCAAAVSYWRHGYQLSYDYWGQGTQVTVSS please.
Response given: high polyreactivity

Challenge: Which polyreactivity (PSR sort gate) is listed for QVQLVESGGGLVQAGGSLRLSCAASGRIFYGYAMGWYRQAPGKERELVAAISWRGGRTYYADSVKGRFTISRDNAKNTVYLQMNSLKPEDTAVYYCNKDFPPQGQLRNMYYWGQGTQVTVSS ?
Response given: high polyreactivity

Challenge: For QVQQVESGGGLVQAGGSLRLSCADSGRTFTLYAMGWYRQAPGKERELVAAITWRGGRTYYADSVKGRFTISRDNAKNTVYFQMNSLKPEVTEVYYCAARKYSPQLDRYGYWGQGTQVTVSS , what is its reported polyreactivity (PSR sort gate)?
Response given: high polyreactivity

Challenge: Given QVQLVESGGGLVQAGGSLRLSCAASGLTFSVYAMGWYRQAPGKERELVAAISYSGDSTYADSVKGRFTISRDNAKNTVYLQMNSLKPEDTAVYYCNARWVRQGYRRWYDYWGQGTQVTVSS , state its recorded polyreactivity (PSR sort gate).
Response given: low polyreactivity

----------
test_summary: yeast display, Sf9 membrane polyspecificity reagent, FACS + sequencing; frameworks hold sequencing errors
observed_property: polyreactivity (PSR sort gate)

{"columns": ["residue_codes", "polyreactivity (PSR sort gate)"],
 "data": [
  ["QVQLVESGGGLVQAGGSLRLSCAASGRTFWQYAMGWYRQAPGKERELVAAIRYSGGSTYYADSVKGRFTISRDNAKNTVYLQMNSLKPEDTAVYYCAKRLKPGFYYWGQGTQVTVSS", "high polyreactivity"],
  ["QVQLVESGGGLVQAGGSLRLSCAASGFTFGLYAMGWYRQAPGKERELVAAISWSGDNTYYADSVKGRFTISRDNAKNTVYLQMNSLKPEDTAVYYCAKVTKRNQGYYYWGQGTQVTVSS", "high polyreactivity"],
  ["QVQLVESGGGLVQAGGSLRLSCAASGSTFPPNAMGWYRQAPGKEGELVADSSDSSTYYADSVKGRFTISRDNAKNTVYLQMNSLKPEDTAVYYCAAADAGLSSKSYGQQYDYWGQGTQVTVSS", "low polyreactivity"],
  ["QVQLVESGGGLVQAAGSLRLSCAASGRTFGQYVMGGSRQAPGKERELVAAISGIGGSTYYADSVKGRFTISRDNAKNTVYLQMNSLIPDDTAVYYCAVELYWYPGYDYWGQGTQVTVSS", "low polyreactivity"],
  ["QVQLVESGGGVVQAGGSLRLSCAASGNIFFGNAMGWYRQAPGKERELVAAITKRGGSTYYADSVKGRFTISRDNAKNTVYLQMNSLKPEDTAVYYCAAVSYSKRTWSMNYWGQGTQVTVSS", "high polyreactivity"],
  ["QVQLVESGGGLVQAGGSLRLSCAASGSIFYVYAMGWYRQAPGKERELVAAINTAGGSTFYADSVKGRFTISRDNAKNPVSLQMTSLKPEETAVYYCAAERYRYRSTDTMGYWGQGTQVTVSS", "low polyreactivity"],
  ["QVKLVESGGGLVQAGGSLRLSCAASGNILGYNAMGWYRQEPGKERELVAAITQSGGSTYYADSVKGRFTISRDNAKYSVYLQMTSLKPEDTAVYDCAVDCGPFYDPFGYWGQGTQVTVSS", "low polyreactivity"],
  ["QVQLVESGGGLVKAGGSLRLSCAASGSTFTYYAMGWYRQAPGKERELVARITWTGGRTYYADSVKGRFTISRGNAKNTVYLQMNSLKPEDTAVNYCNALPYFYETQYDYWGQGTQVTVSS", "low polyreactivity"],
  ["QVQLVESGGGLDQAGGSLRLSCAASGSTFSQYVMGWYRQAPGKERELVAANSSGGSTYYADSVKGRFTISRDNAKNTVYLQMNSLKPEDTAVYYCAAKYDGSYVGLYWYSMNYWGQGTQVTVSS", "low polyreactivity"],
  ["QVQLVESGGGLVQAGGSLRLSCAASGSTFPVYAMGWYRQAPGKERELVASISSGADTNYADSVKGRFTISRDNAKNTVYLQMNSLKPEDTAVYYCAATVPLRTIRPRSYGYWGQGTQVTVSS", "low polyreactivity"]
]}

Challenge: Please report the recorded polyreactivity (PSR sort gate) for QVQLVESGGGLVQAGGSLRLSCSASGRIFPWNTMGWYRQAPGKERELVAGITSGGSTNYADSVKGRFTISRDNAKNTVYLQMNSLKPEDTAVYYCAARGYYWYISGVYEYEYWGQGTQVTVSS .
Response given: low polyreactivity

Challenge: Need polyreactivity (PSR sort gate), item QVKLVESGGGLVQAGCSLRLSCAASGFIFRSYAMGWYRQAPRKERELVAVISRRGVNTHYADSVKGRFTISRDNAKNTVYLQMNSLKPEDTAVYYCAKGLSALGDYWGQGTQVTVSS
Response given: high polyreactivity

Challenge: I would be grateful if you could share the reported polyreactivity (PSR sort gate) for QVQLVESGGGLDQARGSLRLSCAASGGIFDHNAMGWYRQAPGKEREFVAAITWSGGGTYYADSVKGRFTISRDNAKNTVYLQMNSLKPEDTAVYYCAATVYGIYYYGKDRYDYWGQGTQVTVSS .
Response given: low polyreactivity

Challenge: Please give the measured polyreactivity (PSR sort gate) for this sequence: QVQLVESGGGLVQAGGSLRLSCAASGSTFGYYTMGWYRQAPGKERELVASIDVSGDSTSYADSVKGRFTISRDNAKNTVYVQMNSLKPEDTAVYYCNTGRYPTSPTHNYWGQGTHVTVSS
Response given: low polyreactivity

Challenge: polyreactivity (PSR sort gate) for QVQLEESGGGLVQAGGSLRLSCAASGSTSLKNAMGWYRQAPGKERELVAAISSGGSTYYADSVKGRFTISRDNAKNTVYLQINSLKPEDTAVYYCAAKYLRGLGYWGQGTQVTVSS ?
Response given: high polyreactivity

Challenge: Could you tell me which polyreactivity (PSR sort gate) is on file for QVQLVESGGGLVQAGGSLRLSCAASGRIFRTNAMGWYRQAPGKEREFVAAISKDGGRTYYADSVKGRFTISRDNAKNTVYLQMNSLKPEDTAVYYCNVLVKHSTTTYSTYDYWGQGTQVTVSS ?
Response given: high polyreactivity

Challenge: Find the recorded polyreactivity (PSR sort gate) belonging to QVQLVESGGGLVQAGGSLRLSCAASGYILYGYAMGGYRQAPGKERELVAAISNDGSTYYADSVKGRFTISRDNAKNSVYLQMNSLKTEDTAVYYCNAREYGYFKYDYWGQGTQVTVSS and report it.
Response given: high polyreactivity

Challenge: Look at this sequence and give its reported polyreactivity (PSR sort gate). QVQLVESGGGLVQSGGSLRLSCAASGSNFITYAMGWYRQAPGKERELVAAIRDSGDRTYYADSVKGRFTISRDNAKNTVYLQMNSLKPEDTAVYYCNARWQEPLKYDYWGQGTQVTVSS
Response given: low polyreactivity

Challenge: # query: polyreactivity (PSR sort gate) of entry QVQLVESGGGLVQAGGSLRISCAPSGRTFGINAMGWYRQAPGKERELVAVISFGDGGTYYADSVKGRFTISRDNAKNTVYLQMNSLKPEDTAVYYCATDYQSTSVWGGHFVINPYDYWGQGTQVTVSS
Response given: low polyreactivity

Challenge: # input sequence: QVQLVESGGGLVQAGGSLRLSCASSGSTFFTNAMVWYRQAPGKERELVATITWSGGTTYADSVKGRFTISRDNAKNTVYLQMNSLKPEDTAVYYCADESSSYWGDQGGALWLYDYWGQGTQVTVSS ; wanted: its polyreactivity (PSR sort gate)
Response given: low polyreactivity

Challenge: Fill in the blank: the reported polyreactivity (PSR sort gate) of QVQLVESGGGLVQAGGSLRLSCAASGSTFAIYGMGWYRQAPGKERELVAGITRGGSTNYADSVKGRFTISRDNAKNTVYLQMNSLKPEDTAVYYCNKVQRSTYYNGYDYWGQGTQVTVSS is ____.
Response given: high polyreactivity
